# assay-overview: Fraction unbound in mouse plasma at 50 to 100 mg/kg, ip
# Format: ADME, organism-based

molecule: Cc1nccn(-c2ccc(-c3cc4cnc(NC5COC5)nc4n(CC4CCNCC4(F)F)c3=O)c(Cl)c2)c1=O (single isomer, unassigned)
fraction unbound: 0.076

---

# assay-overview: Cmax associated with acute adverse effect in rat
# Assay type: ADME, organism-based
# condition-parameters: in vivo

smiles-data: CCn1c(=O)c(-c2ccc(-c3cncc(C)n3)cc2Cl)cc2cnc(NCCC3CCN(C)CC3)nc21
Cmax / µM: 4

---

# assay-overview: Fraction unbound in mouse plasma at 150 to 300 mg/kg, ip
# Format: ADME, organism-based

smiles-data: CNc1ncc2cc(-c3ccc(-n4cccc(C)c4=O)cc3C3CC3)c(=O)n(C[C@@H]3CNCCO3)c2n1
fraction unbound: 0.025

---

# assay-overview: Cmax associated with acute adverse effect in mouse at 100 to 200 mg/kg, ip
# Type: ADME, organism-based
# condition-parameters: in vivo

smiles-data: Cc1cncc(-c2ccc(-c3cc4cncnc4n(C[C@H]4CC[C@H](N)CC4)c3=O)c(Cl)c2)n1
units-of-measure: µM
Cmax: 59

---

This listing pairs molecules with measured log10(IC50).
# system: Serine/threonine-protein kinase PAK 1/PAK 2 (Homo sapiens, UniProt Q13177+Q13153)
# assay-overview: Inhibition of PAK1/2 in human EBC1 cells assessed as phosphorylation of MEK1 at serine 298 after 2 hrs by HTRF assay
# Type: cell-based
experimental-readout: log10(IC50) (log10 of the value in nM)

molecule: CNc1ncc2cc(-c3ccc(-n4cccc(C)c4=O)cc3Cl)c(=O)n(CCCN)c2n1
result-value: 2.78

molecule: CNc1ncc2cc(-c3ccc(-n4cccc(C)c4=O)cc3Cl)c(=O)n(CCO)c2n1
result-value: 2.97

molecule: CCc1cccn(-c2ccc(-c3cc4cnc(NC)nc4n(C[C@H]4CNCCO4)c3=O)c(Cl)c2)c1=O
result-value: 2.38

molecule: CNc1ncc2cc(-c3ccc(-n4cccc(C)c4=O)cc3Cl)c(=O)n(CC(F)(F)CN)c2n1
result-value: 2.66

molecule: CNc1ncc2cc(-c3ccc(-n4cccc(C)c4=O)cc3Cl)c(=O)n(CCOC)c2n1
result-value: 2.65

molecule: CCn1c(=O)c(-c2ccc(-n3cccc(C)c3=O)cc2Cl)cc2cnc(NC)nc21
result-value: 2.53

molecule: CNc1ncc2cc(-c3ccc(-n4cccc(C)c4=O)cc3Cl)c(=O)n(CC3CCNCC3(F)F)c2n1 (racemic)
result-value: 1.89

molecule: Cc1cncc(-c2ccc(-c3cc4cncnc4n(C[C@H]4CC[C@H](N)CC4)c3=O)c(Cl)c2)n1
result-value: 3.78

molecule: CCn1c(=O)c(-c2ccc(-n3cccc(C)c3=O)cc2Cl)cc2cnc(NC3COC3)nc21
result-value: 2.18

molecule: CNc1ncc2cc(-c3ccc(-n4cccc(C)c4=O)cc3Cl)c(=O)n(CCC3(F)CN(C)C3)c2n1
result-value: 1.52

molecule: CNc1ncc2cc(-c3ccc(-n4cncc(C)c4=O)cc3Cl)c(=O)n(CCOC)c2n1
result-value: 2.90

molecule: CNc1ncc2cc(-c3ccc(-n4cccc(C)c4=O)cc3Cl)c(=O)n(CCOC3CN(C)C3)c2n1
result-value: 1.94

molecule: Cc1nccn(-c2ccc(-c3cc4cnc(NC5COC5)nc4n(CC4CCNCC4(F)F)c3=O)c(Cl)c2)c1=O (single isomer, unassigned)
result-value: 2.45

molecule: COCCn1c(=O)c(-c2ccc(-n3cccc(C)c3=O)cc2Cl)cc2cnc(NC3COC3)nc21
result-value: 2.46

molecule: CNc1ncc2cc(-c3ccc(-n4cccc(C)c4=O)cc3C3CC3)c(=O)n(C[C@@H]3CNCCO3)c2n1
result-value: 4.18
